system: MS2 coat protein; experiment: apparent Kd, MS2 coat protein; higher = weaker binding; RNA-MaP array; settings: ligand present: flavin mononucleotide; designed as: ON switch for flavin mononucleotide
apparent Kd vs 20 nM: at or above is condition met, below is condition not met.

Solved cases below.
chainSequence: ACAUGGAGGACAGGAUAUCCAUCUGGCCACCACGGAGAAGGGUCCACCCGACAUGAGGAUCACCCAUGUAUCAACGUGAUGAGU
assignedClass: condition not met
//
chainSequence: UACCUUAUGGAGAAGGCACGUCUCAGAGGAGCAACAUGAGGAUCACCCAUGUACCUGGGCUGAAGUGAGGAUAUCCAAAUCCCA
assignedClass: condition not met
//
chainSequence: ACGAGGUACACAGGAUAUGCAAACAUGAGGAUCACCCAUGUGUUCGCCAAUAUCGUGAAUGUGUCGCAGAAGGGUGGUAGUCUA
assignedClass: condition not met

input: API: above_or_equal(metric=apparent Kd, cutoff=20 nM) for item `UCUAAACAUGAGGAUCACCCAUGUGAUUUACUCGCAGGAUAUGAGAGCUUGCACACGCAAUCAGAAGGGCGUCGAA`
output: condition met

input: Does the reported apparent Kd for `UAGAGGUACGUUGGCGAACAUGAGGAUCACCCAUGUAAAUGAAGAAGGUGUGUUGCGCAAAACGACAAGGAUAUUCAAGACAUC` fall at or above the 20 nM mark?
output: condition met

input: Could you please find out whether `GGACCAAGGAGGGAGGAUAUCACAUACAAAACAUGAGGAUCACCCAUGUAGAAGAGACAAGAUACAGAGAAGGCCCAGAAAUAAAA` has apparent Kd that meets 20 nM or exceeds it?
output: condition not met

input: Is the recorded value of apparent Kd equal to or greater than 20 nM for this sequence? `CCACGGAGUUUAGGAUAUGUCGGCUUGGAGUUUACAGAAGGAAAUUGCGCAGCCACAUGAGGAUCACCCAUGUUCGGAAAUACG`
output: condition met
